Data origin, for the record: patent US4771068A

In this section we review reported CIc values for a set of compounds.
Test system: Sarcoma 180 solid tumour
method summary: animal or person
test context: CI of test compound divided by CI of mitomycin C as control in the same condition

{"compound": "CO[C@@]12[C@H](COC(N)=O)C3=C(C(=O)C(C)=C(NCCSC(C)=S)C3=O)N1C[C@@H]1N[C@@H]12", "CIc": 1.6}
{"compound": "CO[C@@]12[C@H](COC(N)=O)C3=C(C(=O)C(C)=C(NCCSC(C)=O)C3=O)N1C[C@@H]1N[C@@H]12 [Compound 1, 7-N-[(2-acetylthio)ethyl]mitomycin]", "CIc": 1.2}
{"compound": "CC1=C(NCCSC(=O)c2ccc([N+](=O)[O-])cc2)C(=O)C2=C(C1=O)N1C[C@H]3[C@H](N3C)[C@]1(O)[C@H]2COC(N)=O (some centres unmarked)", "CIc": 1.6}
{"compound": "CO[C@@]12[C@H](COC(N)=O)C3=C(C(=O)C(C)=C(NCCSC(=O)c4ccc(F)cc4)C3=O)N1C[C@@H]1N[C@@H]12", "CIc": 1.2}
{"compound": "CCC(=O)SCCNC1=C(C)C(=O)C2=C(C1=O)[C@@H](COC(N)=O)[C@@]1(OC)[C@H]3N[C@H]3CN21", "CIc": 0.59}

CIc reading for C=C1C2=C(C(=O)C(C)=C(NCCSC(C)=O)C2=O)N2C[C@H]3[C@H](N3C)[C@]12O (some centres unmarked) : 1.6

CIc reading for CO[C@@]12[C@H](COC(N)=O)C3=C(C(=O)C(C)=C(NCCCCSC(C)=O)C3=O)N1C[C@@H]1N[C@@H]12 : 1.6

CIc reading for CC1=C(NCCSC(=O)c2ccc(F)cc2)C(=O)C2=C(C1=O)N1C[C@H]3[C@H](N3C)[C@]1(O)[C@H]2COC(N)=O (some centres unmarked) : 0.89

CIc reading for CO[C@@]12[C@H](COC(N)=O)C3=C(C(=O)C(C)=C(N)C3=O)N1C[C@@H]1N[C@@H]12 [MMC, mitomycin C, reference compound] : 1

CIc reading for CO[C@@]12[C@H](COC(N)=O)C3=C(C(=O)C(C)=C(NCCCSC(C)=O)C3=O)N1C[C@@H]1N[C@@H]12 : 0.88

CIc reading for CO[C@@]12[C@H](COC(N)=O)C3=C(C(=O)C(C)=C(NCCCCSC(C)=S)C3=O)N1C[C@@H]1N[C@@H]12 : > 1.1

CIc reading for COc1ccc(C(=O)SCCNC2=C(C)C(=O)C3=C(C2=O)[C@@H](COC(N)=O)[C@@]2(OC)[C@H]4N[C@H]4CN32)cc1 : 0.81

CIc reading for CO[C@@]12[C@H](COC(N)=O)C3=C(C(=O)C(C)=C(NCCCCCSC(C)=O)C3=O)N1C[C@@H]1N[C@@H]12 : > 1.1

CIc reading for CC(=S)SCCNC1=C(C)C(=O)C2=C(C1=O)[C@H](COC(N)=O)[C@@]1(O)[C@@H]3[C@H](CN21)N3C (some centres unmarked) : 1.1

CIc reading for CO[C@@]12[C@H](COC(N)=O)C3=C(C(=O)C(C)=C(NCCCCCCCCSC(C)=O)C3=O)N1C[C@@H]1N[C@@H]12 : 1.3

CIc reading for CO[C@@]12[C@H](COC(N)=O)C3=C(C(=O)C(C)=C(NCCSC(C)=O)C3=O)N1C[C@H]1[C@@H]2N1C (some centres unmarked) : 0.88
